study-target: T1, human tissue factor pathway inhibitor (TFPI) (human, UniProt P10646 29-304, limits assumed)
T1 construct: bought; also called hTFPI; human TFPI
T1 sequence (looked up): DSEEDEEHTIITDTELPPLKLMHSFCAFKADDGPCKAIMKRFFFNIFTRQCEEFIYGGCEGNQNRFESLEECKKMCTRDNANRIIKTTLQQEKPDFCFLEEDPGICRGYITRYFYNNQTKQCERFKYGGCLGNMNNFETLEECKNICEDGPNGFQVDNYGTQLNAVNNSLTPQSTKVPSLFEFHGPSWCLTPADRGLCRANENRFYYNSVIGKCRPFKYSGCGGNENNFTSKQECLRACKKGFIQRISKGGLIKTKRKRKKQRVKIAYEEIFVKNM
assay-comment: competitive ELISA
property: variant/HC_D62R (ratio)

[
  {
    "binder": "4B7 HC N32D+D62R+Y112D/LC D33F+N35I+D97T (Fab, V domains shown) VH: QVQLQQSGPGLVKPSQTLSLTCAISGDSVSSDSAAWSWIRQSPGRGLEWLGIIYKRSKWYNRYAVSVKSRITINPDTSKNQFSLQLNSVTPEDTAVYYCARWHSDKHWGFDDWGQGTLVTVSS VL: DIVMTQSPLSLPVTPGEPASISCRSSQSLVFSFGITYLNWYLQKPGQSPQLLIYKGSNRASGVPDRFSGSGSGTDFTLKISRVEAEDVGVYYCQQYTSYPLTFGQGTKVEIKR",
    "uom": "ratio",
    "numeric-readout": 25.5
  },
  {
    "binder": "4B7 HC N32D+D62R+Y112D/LC M4I+S32R+D33F+N35I+D97T (Fab, V domains shown) VH: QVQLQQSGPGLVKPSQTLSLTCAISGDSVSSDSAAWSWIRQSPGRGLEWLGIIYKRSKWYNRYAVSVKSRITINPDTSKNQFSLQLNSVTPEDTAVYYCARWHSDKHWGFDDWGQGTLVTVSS VL: DIVITQSPLSLPVTPGEPASISCRSSQSLVFRFGITYLNWYLQKPGQSPQLLIYKGSNRASGVPDRFSGSGSGTDFTLKISRVEAEDVGVYYCQQYTSYPLTFGQGTKVEIKR",
    "uom": "ratio",
    "numeric-readout": 19.3
  },
  {
    "binder": "4B7 HC N32D+D62R+Y112D/LC S32R+D33F+N35I+L51R+D97T (Fab, V domains shown) VH: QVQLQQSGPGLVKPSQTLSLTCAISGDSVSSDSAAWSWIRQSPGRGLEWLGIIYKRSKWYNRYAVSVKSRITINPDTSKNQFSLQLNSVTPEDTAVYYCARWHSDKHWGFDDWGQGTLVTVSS VL: DIVMTQSPLSLPVTPGEPASISCRSSQSLVFRFGITYLNWYLQKPGQSPQRLIYKGSNRASGVPDRFSGSGSGTDFTLKISRVEAEDVGVYYCQQYTSYPLTFGQGTKVEIKR",
    "uom": "ratio",
    "numeric-readout": 11.2
  },
  {
    "binder": "B2.0 (4B7 HC N32D+D62R+Y112D/LC S32R+D33F+N35I+D97T) (Fab, V domains shown) VH: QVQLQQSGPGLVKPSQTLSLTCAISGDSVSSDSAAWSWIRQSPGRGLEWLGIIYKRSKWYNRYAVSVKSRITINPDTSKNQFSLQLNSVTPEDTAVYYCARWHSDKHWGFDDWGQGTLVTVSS VL: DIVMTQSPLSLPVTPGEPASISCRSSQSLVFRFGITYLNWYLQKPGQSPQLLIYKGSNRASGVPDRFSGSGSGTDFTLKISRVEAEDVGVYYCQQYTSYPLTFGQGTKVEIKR",
    "uom": "ratio",
    "numeric-readout": 26.2
  },
  {
    "binder": "4B7 HC D62R+H107M+Y112D/LC F31I+D33R+N35I (Fab, V domains shown) VH: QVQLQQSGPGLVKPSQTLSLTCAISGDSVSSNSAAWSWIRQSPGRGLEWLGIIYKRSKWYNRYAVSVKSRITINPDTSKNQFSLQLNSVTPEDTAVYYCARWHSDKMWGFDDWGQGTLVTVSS VL: DIVMTQSPLSLPVTPGEPASISCRSSQSLVISRGITYLNWYLQKPGQSPQLLIYKGSNRASGVPDRFSGSGSGTDFTLKISRVEAEDVGVYYCQQYDSYPLTFGQGTKVEIKR",
    "uom": "ratio",
    "numeric-readout": 22
  }
]
